study target: rat NaP2b (SLC34A2) (Rattus norvegicus, UniProt Q9JJ09)
Construct: host or cells: HEK293
Sequence (Q9JJ09 1-695): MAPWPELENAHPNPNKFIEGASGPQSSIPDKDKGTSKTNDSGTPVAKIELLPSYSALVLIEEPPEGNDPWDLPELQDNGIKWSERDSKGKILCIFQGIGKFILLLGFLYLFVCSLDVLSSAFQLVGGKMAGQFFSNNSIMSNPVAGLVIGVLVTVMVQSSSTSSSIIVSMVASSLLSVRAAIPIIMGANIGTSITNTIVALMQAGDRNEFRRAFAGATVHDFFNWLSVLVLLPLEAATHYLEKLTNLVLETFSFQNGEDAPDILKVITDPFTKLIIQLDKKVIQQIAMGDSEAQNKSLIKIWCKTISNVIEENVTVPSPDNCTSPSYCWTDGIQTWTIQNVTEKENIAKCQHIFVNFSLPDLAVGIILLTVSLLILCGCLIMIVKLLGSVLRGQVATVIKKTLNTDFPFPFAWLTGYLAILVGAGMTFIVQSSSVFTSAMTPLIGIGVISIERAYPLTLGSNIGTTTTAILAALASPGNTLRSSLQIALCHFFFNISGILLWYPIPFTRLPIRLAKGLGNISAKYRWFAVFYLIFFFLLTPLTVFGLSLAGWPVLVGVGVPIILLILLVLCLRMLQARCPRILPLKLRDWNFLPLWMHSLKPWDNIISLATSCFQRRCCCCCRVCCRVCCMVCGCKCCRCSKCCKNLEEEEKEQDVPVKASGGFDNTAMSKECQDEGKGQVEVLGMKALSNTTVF
assay procedure: Inhibition of NaP2b-mediated Pi (33P) uptake in transfected HEK293 cells, rat NaP2b
Type: cell-based
condition info: 33P Pi uptake, 0.1 mM phosphate, value given as pIC50 range
readout: IC50

As a guide, the following entries are already answered.
[
  {
    "mol smiles": "O=C(O)CNC(=O)Cc1cccc(SCc2cccc(C(=O)Nc3ccc(N4CCCCC4)cc3-c3cc(C(=O)NCc4cccc(C(F)(F)F)c4)ccn3)c2)c1",
    "study target": "rat NaP2b (SLC34A2) (Rattus norvegicus, UniProt Q9JJ09)",
    "IC50": "10 to 31.6 µM"
  },
  {
    "mol smiles": "O=C(O)CCSCc1cccc(C(=O)Nc2ccc(N3CCCCC3)cc2-c2cc(C(=O)NCc3cccc(-n4cccn4)c3)ccn2)c1",
    "study target": "rat NaP2b (SLC34A2) (Rattus norvegicus, UniProt Q9JJ09)",
    "IC50": "10 to 31.6 µM"
  },
  {
    "mol smiles": "CCN(CC)c1ccc(NC(=O)c2cccc(CSc3cccc(CC(=O)O)c3)c2)c(-c2cc(C(=O)NCc3cccc(C(F)(F)F)c3)ccn2)c1",
    "study target": "rat NaP2b (SLC34A2) (Rattus norvegicus, UniProt Q9JJ09)",
    "IC50": "< 1 µM"
  },
  {
    "mol smiles": "CCN(CC)c1ccc(NC(=O)c2cccc(C(=O)N(C)CCN(CCOC)CCOCCOCCOCCOCCOCCOCCOC)c2)c(-c2cc(C(=O)N[C@H]3CCCc4ccccc43)ccn2)c1",
    "study target": "rat NaP2b (SLC34A2) (Rattus norvegicus, UniProt Q9JJ09)",
    "IC50": "1 to 7.94 µM"
  },
  {
    "mol smiles": "CCN(CC)c1ccc(NC(=O)c2cccc(C(=O)N(C)CCN(C)CCOCCOCCOCCNC(=O)c3cscn3)c2)c(-c2cc(C(=O)N[C@H]3CCCc4ccccc43)ccn2)c1",
    "study target": "rat NaP2b (SLC34A2) (Rattus norvegicus, UniProt Q9JJ09)",
    "IC50": "< 1 µM"
  }
]

# input So what's the measured IC50 for this one? `O=C(O)CCSCc1cccc(C(=O)Nc2ccc(N3CCCCC3)cc2-c2cc(C(=O)NCc3ccc4c(c3)OCCCO4)ccn2)c1`
# output 1 to 7.94 µM

# input // returns reported IC50 for input `CN1CCN(C(=O)c2cccc(SCc3cccc(C(=O)Nc4ccc(N5CCCCC5)cc4-c4cc(C(=O)NCc5cccc(C(F)(F)F)c5)ccn4)c3)c2)CC1`
# output 10 to 31.6 µM

# input GET /values?readout=IC50&item= `O=C(O)CCSCc1cccc(C(=O)Nc2ccc(N3CCCCC3)cc2-c2cc(C(=O)NCc3cc(C(F)(F)F)cc(C(F)(F)F)c3)ccn2)c1`
# output 1 to 7.94 µM

Each recorded value in this set is attributed to patent US20140023611A1.
